// data source = PubChem BioAssay AID1159580

assay: chemical genetic growth profiling, strain panel (AID 1159580);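 further: tested at 20 µM; growth read once vehicle control cultures reached saturation at 30 °C; 1 = growth at the plate median or of vehicle wells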; settings: S. cerevisiae deletion strains, growth OD, locus YLR418C, strain cdc73
About 2,000 (36%) of roughly 5,500 compounds were called active. About 18% were inconclusive and are not listed. No stated cut-off is given here; in the data, active means normalized growth mostly below about 0.91 (no sharp cut-off); inconclusive means no clear call, values can overlap the other calls; inactive means mostly above about 0.92. Some of the results follow.
Permitted responses: active, inactive

Field: example entries. Status: answers known.
1. C=C[C@@](C)(O)CCC1C(=C)CCC2[C@@](C)(CO)CCC[C@]12C (stereo partly drawn)
inactive
2. O=C1CCC(N2C(=O)c3ccccc3C2=O)C(=O)N1 (stereo not drawn)
inactive
3. CNCCC(Oc1ccc(C(F)(F)F)cc1)c1ccccc1 (stereo not drawn)
inactive
4. CCC1(O)CC(OC2CC(N(C)C)C(OC3CC(O)C(OC4CCC(=O)C(C)O4)C(C)O3)C(C)O2)c2c(cc3c(c2O)C(=O)c2c(O)cccc2C3=O)C1C(=O)OC (stereo not drawn)
inactive
5. CC[C@@]1(O)C[C@H](O[C@H]2C[C@H](N(C)C)[C@H](O)[C@H](C)O2)c2c(cc3c(c2O)C(=O)c2c(O)ccc(O)c2C3=O)[C@H]1C(=O)OC
active

Lookup: Name the outcome recorded for O=C(OCC(O)CO)c1ccccc1Nc1ccnc2cc(Cl)ccc12 (stereo not drawn) in the assay.
Found: inactive

Lookup: Do the same for COC(=O)/C=C/C(C)=C/C=C/C(C)=C/C=C/C=C(C)/C=C/C=C(C)/C=C/C(=O)O please
Found: inactive

Lookup: Do the same for CC[C@@]1(O)C[C@H](O[C@H]2C[C@H](N(C)C)[C@H](O)[C@H](C)O2)c2c(cc3c(c2O)C(=O)c2c(O)cccc2C3=O)[C@H]1C(=O)OC please
Found: active

====

Known normalized growth of a selection of compounds
assay: chemical genetic growth profiling, strain panel (AID 1159580);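 further: tested at 20 µM; growth read once vehicle control cultures reached saturation at 30 °C; 1 = growth at the plate median or of vehicle wells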; details: S. cerevisiae deletion strains, growth OD, locus YLR342W, strain FKS1, stronger effect = lower value
In all, about 5,500 compounds went through this assay and about 2,000 (36%) were called active. About 18% were inconclusive and are not listed. The list shows a part of the results.
Form rule: numeric answer, no unit written next to it.

Lookup: Consider the compound shown here: CN(C)CCCC1(c2ccc(F)cc2)OCc2cc(C#N)ccc21 (centres undefined) What is its recorded normalized growth?
Found: 0.999

Lookup: Do the same for Oc1ccc2c(c1)O[C@H](c1ccc(O)c(O)c1)[C@@H](O)C2 please
Found: 1.03

Lookup: Do the same for CC(=O)S[C@@H]1CC2=CC(=O)CC[C@]2(C)[C@H]2CC[C@@]3(C)[C@@H](CC[C@@]34CCC(=O)O4)C12 (some centres undefined) please
Found: 1.05

Lookup: Do the same for CCC[C@H](N[C@@H](C)C(=O)N1[C@H](C(=O)O)C[C@@H]2CCCC[C@@H]21)C(=O)OCC please
Found: 1.03

Lookup: Do the same for COc1ccc(C(CN(C)C)C2(O)CCCCC2)cc1 (centres undefined) please
Found: 0.976

Lookup: Do the same for COC(=O)/C=C/C(C)=C/C=C/C(C)=C/C=C/C=C(C)/C=C/C=C(C)/C=C/C(=O)O please
Found: 1.03

Lookup: Do the same for C[C@]12CCC(=O)C=C1C=CC1C2CC[C@@]2(C)C1CC[C@@]21CCC(=O)O1 (some centres undefined) please
Found: 0.961

Lookup: Do the same for COc1ccc2c(c1)OC1(O)COc3cc(OC)c(OC)cc3C1=C2 (centres undefined) please
Found: 0.976

Lookup: Do the same for CN1C2C[C@H](OC(=O)[C@H](CO)c3ccccc3)C[C@H]1[C@@H](O)C2 please
Found: 1.02
